Data credit: PubChem BioAssay (NCI)

Tested on: EKVX NSCLC
Assay: NCI tumour cell line growth inhibition, 48 h
# TGI per entry
Please state the figure in µM; there is no need to write the unit.

A selection of reference data follows.
[
  {
    "COMPOUND": "O=C(Nc1cccc(F)c1)c1cc2ccc(O)cc2oc1=Nc1ccccc1F",
    "ASSAY_ENDPOINT": "TGI",
    "VALUE_MEASURED": 6.17
  },
  {
    "COMPOUND": "CC(=O)Oc1ccccc1C(=O)/C=C/c1cccc([N+](=O)[O-])c1",
    "ASSAY_ENDPOINT": "TGI",
    "VALUE_MEASURED": 26.6
  },
  {
    "COMPOUND": "CCN(CCO)CC(C)Nc1ccc([N+](=O)[O-])c2sc3ccccc3c(=O)c12 (stereo not given)",
    "ASSAY_ENDPOINT": "TGI",
    "VALUE_MEASURED": 6.28
  }
]

Specify TGI for `C/C=C(\C)c1cc(O)c(C)c2c1Oc1cc(O)c(Cl)c(C)c1C(=O)O2` and stop.
61.2

* * *

Tested on: OVCAR-8 ovarian
Experiment: NCI tumour cell line growth inhibition, 48 h
ASSAY_ENDPOINT: TGI

Give recorded TGI. `CC1(C)N=C(N)N=C(N)N1c1ccc(CCCCc2ccc(S(=O)(=O)F)cc2)c(Cl)c1`
18.4 µM

* * *

Test system: HOP-92 NSCLC
Test: NCI tumour cell line growth inhibition, 48 h
ASSAY_ENDPOINT: GI50

Example entries and their recorded answers appear below.
[
  {
    "MOLECULE": "CCCCn1c(=O)c2c(nc3n2CCCN3CCc2ccc(OCC(=O)NCCN(CC)CC)cc2)n(CCCC)c1=O",
    "GI50": "0.846 µM"
  },
  {
    "MOLECULE": "CC1OC(O[C@H]2/C=C/C=C/C=C/C=C/C=C/C=C/C=C/[C@H](C)[C@@H](O)[C@@H](C)[C@H](C)OC(=O)CC(O)CC(O)CCC(O)C(O)CC(O)C[C@]3(O)C[C@H](O)C(C(=O)O)C(C2)O3)C(O)[C@H](N)C1O (some centres undefined)",
    "GI50": "3.16 µM"
  },
  {
    "MOLECULE": "O=c1[nH]cnc2c(C3NC(CO)C(O)C3O)c[nH]c12 (centres undefined)",
    "GI50": "> 100 µM"
  },
  {
    "MOLECULE": "CC(C)(C)CN1CCn2c(nc3c(N)nccc32)S1",
    "GI50": "96.5 µM"
  },
  {
    "MOLECULE": "COc1ccc(/C=N/NC(=O)Cn2c(-c3ccc(S(C)(=O)=O)cc3)nc3cc(Cl)ccc32)cc1",
    "GI50": "1.52 µM"
  }
]

Assign GI50 to the following record: `CN1CCC(n2cnc(-c3ccc(F)cc3)c2-c2ccnc(N)n2)CC1`
3.99 µM

Check the records and state GI50 for `O=[N+]([O-])c1cc(S(=O)(=O)Oc2ccccc2)ccc1Cl`
1.75 µM

Look up and state reported GI50 for `O=C(N/N=C/c1cc(Cl)cc(Cl)c1O)c1ccccc1O`
3.69 µM

Provide GI50 value for the following molecule: COc1ccc2c(c1)OC1=C(C(=O)OC1)C2c1cc(OC)c2c(c1)OCO2 (centres undefined)
28.6 µM
